# experiment-description: Biodistribution in mouse Cloudman S91 tumor bearing DBA2 mouse tumour at 10 mg/kg, ip after 24 hrs
# Assay type: ADME, organism-based, Neoplasm
# Parameters: dose 10 mg/kg, route intraperitoneal
# run-parameters: read-out: Drug uptake
endpoint-label: concentration at 24 h (ng/g)
One number for each entry, in ng/g.

// fetch concentration at 24 h given entry `CCNS(=O)(=O)c1ccc(Cl)c(-c2c3nc(c(-c4c(Cl)ccc(S(=O)(=O)NCC)c4Cl)c4ccc([nH]4)c(-c4c(Cl)ccc(S(=O)(=O)NCC)c4Cl)c4nc(c(-c5c(Cl)ccc(S(=O)(=O)NCC)c5Cl)c5ccc2[nH]5)CC4)CC3)c1Cl`
960

* * *

# experiment-description: Biodistribution in mouse Cloudman S91 tumor bearing DBA2 mouse muscle at 10 mg/kg, ip after 12 hrs
# Format: ADME, organism-based, Muscle tissue
# Set-up: dose 10 mg/kg, route intraperitoneal
# run-parameters: read-out: Drug uptake
endpoint-label: concentration at 12 h (ng/g)
Numbers only, in ng/g.

Please indicate concentration at 12 h recorded for `CCNS(=O)(=O)c1ccc(Cl)c(-c2c3nc(c(-c4c(Cl)ccc(S(=O)(=O)NCC)c4Cl)c4ccc([nH]4)c(-c4c(Cl)ccc(S(=O)(=O)NCC)c4Cl)c4nc(c(-c5c(Cl)ccc(S(=O)(=O)NCC)c5Cl)c5ccc2[nH]5)CC4)CC3)c1Cl`
120

* * *

# experiment-description: Biodistribution in mouse Cloudman S91 tumor bearing DBA2 mouse heart at 10 mg/kg, ip after 6 hrs
# Format: ADME, organism-based
# Set-up: dose 10 mg/kg, route intraperitoneal
# run-parameters: read-out: Drug uptake
endpoint-label: concentration at 6 h (ng/g)
One number for each entry, in ng/g.

Retrieve concentration at 6 h measured for `CCNS(=O)(=O)c1ccc(Cl)c(-c2c3nc(c(-c4c(Cl)ccc(S(=O)(=O)NCC)c4Cl)c4ccc([nH]4)c(-c4c(Cl)ccc(S(=O)(=O)NCC)c4Cl)c4nc(c(-c5c(Cl)ccc(S(=O)(=O)NCC)c5Cl)c5ccc2[nH]5)CC4)CC3)c1Cl` and print it.
100

* * *

# experiment-description: Biodistribution in mouse Cloudman S91 tumor bearing DBA2 mouse skin at 10 mg/kg, ip after 2 hrs
# Assay type: ADME, organism-based, Zone of skin
# Parameters: dose 10 mg/kg, route intraperitoneal
# run-parameters: read-out: Drug uptake
endpoint-label: concentration at 2 h (ng/g)
Give bare numbers, in ng/g.

State, in one line, measured concentration at 2 h of `CCNS(=O)(=O)c1ccc(Cl)c(-c2c3nc(c(-c4c(Cl)ccc(S(=O)(=O)NCC)c4Cl)c4ccc([nH]4)c(-c4c(Cl)ccc(S(=O)(=O)NCC)c4Cl)c4nc(c(-c5c(Cl)ccc(S(=O)(=O)NCC)c5Cl)c5ccc2[nH]5)CC4)CC3)c1Cl`
50

* * *

# experiment-description: Biodistribution in mouse Cloudman S91 tumor bearing DBA2 mouse heart at 10 mg/kg, ip after 48 hrs
# Assay type: ADME, organism-based
# Set-up: dose 10 mg/kg, route intraperitoneal
# run-parameters: read-out: Drug uptake
endpoint-label: concentration at 48 h (ng/g)
One number for each entry, in ng/g.

Fill in concentration at 48 h for record `CCNS(=O)(=O)c1ccc(Cl)c(-c2c3nc(c(-c4c(Cl)ccc(S(=O)(=O)NCC)c4Cl)c4ccc([nH]4)c(-c4c(Cl)ccc(S(=O)(=O)NCC)c4Cl)c4nc(c(-c5c(Cl)ccc(S(=O)(=O)NCC)c5Cl)c5ccc2[nH]5)CC4)CC3)c1Cl`
300

* * *

# experiment-description: Biodistribution in mouse Cloudman S91 tumor bearing DBA2 mouse spleen at 10 mg/kg, ip after 48 hrs
# Format: ADME, organism-based
# Set-up: dose 10 mg/kg, route intraperitoneal
# run-parameters: read-out: Drug uptake
endpoint-label: concentration at 48 h (ng/g)
One number for each entry, in ng/g.

Return concentration at 48 h for the following compound: `CCNS(=O)(=O)c1ccc(Cl)c(-c2c3nc(c(-c4c(Cl)ccc(S(=O)(=O)NCC)c4Cl)c4ccc([nH]4)c(-c4c(Cl)ccc(S(=O)(=O)NCC)c4Cl)c4nc(c(-c5c(Cl)ccc(S(=O)(=O)NCC)c5Cl)c5ccc2[nH]5)CC4)CC3)c1Cl`
7300

* * *

# experiment-description: Biodistribution in mouse Cloudman S91 tumor bearing DBA2 mouse muscle at 10 mg/kg, ip after 48 hrs
# Type: ADME, organism-based, Muscle tissue
# Set-up: dose 10 mg/kg, route intraperitoneal
# run-parameters: read-out: Drug uptake
endpoint-label: concentration at 48 h (ng/g)
Give bare numbers, in ng/g.

Name the recorded concentration at 48 h of the molecule listed here: `CCNS(=O)(=O)c1ccc(Cl)c(-c2c3nc(c(-c4c(Cl)ccc(S(=O)(=O)NCC)c4Cl)c4ccc([nH]4)c(-c4c(Cl)ccc(S(=O)(=O)NCC)c4Cl)c4nc(c(-c5c(Cl)ccc(S(=O)(=O)NCC)c5Cl)c5ccc2[nH]5)CC4)CC3)c1Cl`
70

* * *

# experiment-description: Biodistribution in mouse Cloudman S91 tumor bearing DBA2 mouse kidneys at 10 mg/kg, ip after 48 hrs
# Type: ADME, organism-based
# Set-up: dose 10 mg/kg, route intraperitoneal
# run-parameters: kidney, read-out: Drug uptake
endpoint-label: concentration at 48 h (ng/g)
One number for each entry, in ng/g.

Indicate its recorded concentration at 48 h; the compound in question is `CCNS(=O)(=O)c1ccc(Cl)c(-c2c3nc(c(-c4c(Cl)ccc(S(=O)(=O)NCC)c4Cl)c4ccc([nH]4)c(-c4c(Cl)ccc(S(=O)(=O)NCC)c4Cl)c4nc(c(-c5c(Cl)ccc(S(=O)(=O)NCC)c5Cl)c5ccc2[nH]5)CC4)CC3)c1Cl`
400

* * *

# experiment-description: Biodistribution in mouse Cloudman S91 tumor bearing DBA2 mouse skin at 10 mg/kg, ip after 6 hrs
# Assay type: ADME, organism-based, Zone of skin
# Set-up: dose 10 mg/kg, route intraperitoneal
# run-parameters: read-out: Drug uptake
endpoint-label: concentration at 6 h (ng/g)
One number for each entry, in ng/g.

Dear colleague, please send me the reported concentration at 6 h for `CCNS(=O)(=O)c1ccc(Cl)c(-c2c3nc(c(-c4c(Cl)ccc(S(=O)(=O)NCC)c4Cl)c4ccc([nH]4)c(-c4c(Cl)ccc(S(=O)(=O)NCC)c4Cl)c4nc(c(-c5c(Cl)ccc(S(=O)(=O)NCC)c5Cl)c5ccc2[nH]5)CC4)CC3)c1Cl` when you can.
70

* * *

# experiment-description: Biodistribution in mouse Cloudman S91 tumor bearing DBA2 mouse tumour at 10 mg/kg, ip after 6 hrs
# Format: ADME, organism-based, Neoplasm
# Parameters: dose 10 mg/kg, route intraperitoneal
# run-parameters: read-out: Drug uptake
endpoint-label: concentration at 6 h (ng/g)
Give bare numbers, in ng/g.

Indicate the recorded concentration at 6 h value for this compound: `CCNS(=O)(=O)c1ccc(Cl)c(-c2c3nc(c(-c4c(Cl)ccc(S(=O)(=O)NCC)c4Cl)c4ccc([nH]4)c(-c4c(Cl)ccc(S(=O)(=O)NCC)c4Cl)c4nc(c(-c5c(Cl)ccc(S(=O)(=O)NCC)c5Cl)c5ccc2[nH]5)CC4)CC3)c1Cl`
160

* * *

# experiment-description: Biodistribution in mouse Cloudman S91 tumor bearing DBA2 mouse kidneys at 10 mg/kg, ip after 6 hrs
# Assay type: ADME, organism-based
# Design: dose 10 mg/kg, route intraperitoneal
# run-parameters: kidney, read-out: Drug uptake
endpoint-label: concentration at 6 h (ng/g)
Give bare numbers, in ng/g.

For the compound `CCNS(=O)(=O)c1ccc(Cl)c(-c2c3nc(c(-c4c(Cl)ccc(S(=O)(=O)NCC)c4Cl)c4ccc([nH]4)c(-c4c(Cl)ccc(S(=O)(=O)NCC)c4Cl)c4nc(c(-c5c(Cl)ccc(S(=O)(=O)NCC)c5Cl)c5ccc2[nH]5)CC4)CC3)c1Cl` , give its measured concentration at 6 h value.
400

* * *

# experiment-description: Biodistribution in mouse Cloudman S91 tumor bearing DBA2 mouse kidneys at 10 mg/kg, ip after 12 hrs
# Format: ADME, organism-based
# Design: dose 10 mg/kg, route intraperitoneal
# run-parameters: kidney, read-out: Drug uptake
endpoint-label: concentration at 12 h (ng/g)
Give bare numbers, in ng/g.

Identify measured concentration at 12 h corresponding to `CCNS(=O)(=O)c1ccc(Cl)c(-c2c3nc(c(-c4c(Cl)ccc(S(=O)(=O)NCC)c4Cl)c4ccc([nH]4)c(-c4c(Cl)ccc(S(=O)(=O)NCC)c4Cl)c4nc(c(-c5c(Cl)ccc(S(=O)(=O)NCC)c5Cl)c5ccc2[nH]5)CC4)CC3)c1Cl`
300

* * *

# experiment-description: Biodistribution in mouse Cloudman S91 tumor bearing DBA2 mouse liver at 10 mg/kg, ip after 12 hrs
# Type: ADME, organism-based
# Design: dose 10 mg/kg, route intraperitoneal
# run-parameters: read-out: Drug uptake
endpoint-label: concentration at 12 h (ng/g)
Answers are plain numbers, in ng/g.

Quickly give me recorded concentration at 12 h for `CCNS(=O)(=O)c1ccc(Cl)c(-c2c3nc(c(-c4c(Cl)ccc(S(=O)(=O)NCC)c4Cl)c4ccc([nH]4)c(-c4c(Cl)ccc(S(=O)(=O)NCC)c4Cl)c4nc(c(-c5c(Cl)ccc(S(=O)(=O)NCC)c5Cl)c5ccc2[nH]5)CC4)CC3)c1Cl`
4000
